Molecular target: T1, BFL-1ΔC C55 (N-His6 BFL-1ΔC (1–151) bearing C4S/C19S mutations) (human, UniProt Q16548 1-151, C4S | C19S)
T1 sequence (looked up): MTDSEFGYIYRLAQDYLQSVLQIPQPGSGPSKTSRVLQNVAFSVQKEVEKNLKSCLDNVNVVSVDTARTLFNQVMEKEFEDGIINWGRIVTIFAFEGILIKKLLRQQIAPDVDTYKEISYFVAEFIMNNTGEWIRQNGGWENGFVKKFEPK
Test: fluorescence polarisation
Where no end group is shown, it is not given here. The star is where a group is joined. FITC = O=C1OC2(c3ccc(O)cc3Oc3cc(O)ccc32)c2ccc(NC(=S)*)cc21
Assay Endpoint: pKd
Numbers only, as −log10 of the molar value.

q: Name the recorded pKd for {FITC}-DIIRNIARHLAQVGDSMDRSI [FITC-BID BH3 peptide] .
a: 8.48

The measured values listed here are drawn from paper PMC7544158.
